- EXPERIMENTAL_TARGET: T1, rhNR10 (recombinant human NR10) (human, UniProt Q8NI17 20-519, limits assumed)
- T1 construct: also called IL-31 receptor; IL31RA
- T1 sequence: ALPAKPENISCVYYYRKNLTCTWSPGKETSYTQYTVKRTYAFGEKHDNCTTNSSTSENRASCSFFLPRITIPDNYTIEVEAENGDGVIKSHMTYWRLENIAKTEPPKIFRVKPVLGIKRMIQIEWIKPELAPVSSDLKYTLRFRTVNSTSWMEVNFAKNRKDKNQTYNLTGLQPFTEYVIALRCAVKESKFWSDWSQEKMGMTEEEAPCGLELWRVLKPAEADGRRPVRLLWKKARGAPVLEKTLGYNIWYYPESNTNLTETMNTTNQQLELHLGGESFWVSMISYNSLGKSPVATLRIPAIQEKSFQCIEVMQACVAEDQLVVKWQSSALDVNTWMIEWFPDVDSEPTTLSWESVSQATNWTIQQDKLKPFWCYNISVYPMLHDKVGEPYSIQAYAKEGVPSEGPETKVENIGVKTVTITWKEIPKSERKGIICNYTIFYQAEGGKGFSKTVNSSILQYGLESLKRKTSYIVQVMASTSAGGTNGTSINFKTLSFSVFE
- RUN_DESCRIPTION: SPR, Biacore T100; antibody captured on Protein A, rhNR10 as analyte
QUANTITY_KIND: pKd
As a rule, pKd stands for the negative log10 of the concentration, concentration in M.

INPUT: Dear colleague, I am looking for the recorded pKd of the following binder: H71L17 (H71-M58 / L17) (antibody, V domains shown) VH: QVQLVQSGAEVKKPGASVKVSCKASGYTFTGYAMNWVRQAPGQGLEWMGLINPYNGGTDYNPQFQGRVTITADESTSTAYMELSSLRSEDTAVYYCARDGYDDGPYTLETWGQGTLVTVSS VL: DIQMTQSPSSLSASVGDRVTITCQASEDIYSFVAWYQQKPGKAPKLLIYNAQTEAQGVPSRFSGSGSGTDFTLTISSLQPEDFATYYCQHHYDSPLTFGGGTKVEIKR
OUTPUT: 8.48
